test system: Plasmodium falciparum; assay: Antimalarial activity against blood stage form of Plasmodium falciparum 3D7 infected in human erythrocytes after 48 hrs by SYBR Green-based fluorometry; type: functional, organism-based; details: 3D7, 48 h
Readout Type: IC50 (µM)
Respond numerically; units are µM and should not be typed.

In the examples that follow, each entry is paired with its recorded IC50.
INSERT INTO assay_data (molecule, numeric_readout) VALUES
  ('CSc1nc2cc(Oc3ccc(Cl)c4ccccc34)c(Cl)cc2[nH]1', 2.08),
  ('CC(C)(Cc1cc(=O)c2ccccc2[nH]1)C1CCCCC1', 3.8),
  ('O=C1NC(=O)N(C2CCCCC2)C(=O)/C1=C/c1c(-c2ccccc2)[nH]c2ccccc12', 5.56);

**Query** Provide IC50, recorded with Plasmodium falciparum, of `CCn1cc(C(=O)NCc2ccc(Cl)cc2)c(=O)c2cc(F)c(N3CCN(C(=O)c4ccco4)CC3)cc21`
**Result** 5

**Query** Under Plasmodium falciparum, report IC50 for O=C(Nc1ccc(F)c(F)c1)C1CCC(Cn2cnc3ccccc3c2=O)CC1 (stereo not given)
**Result** 2.08
